The entries below are paired with their reported TGI.
tested on: UO-31 renal; experiment: NCI tumour cell line growth inhibition, 48 h

Record excerpt, results attached:
compound=NS(=O)(=O)c1cc2c(cc1Cl)NC(CCC(=O)O)=NS2(=O)=O quantity_name=TGI result="> 100 µM"
compound=CCc1cc(Cc2cc(CC)c(NC(=O)C(=O)Cc3ccccn3)c(CC)c2Cl)c(Cl)c(CC)c1NC(=O)C(=O)Cc1ccccn1 quantity_name=TGI result="> 100 µM"

The recorded TGI for entry CC1=CC(O)(c2ccc(-c3ccccc3Cl)cc2)OC1=O (stereo not drawn) equals > 100 µM

###

tested on: HOP-92 NSCLC; test: NCI tumour cell line growth inhibition, 48 h
quantity name: TGI

Record excerpt, results attached:
molecule="COC(=O)C1CCC(=O)N1C(c1ccc(OC)cc1)c1ccc2c(c1)OCO2 (centres undefined)" result="> 100 µM"
molecule=CCN(CC)CCn1c(=O)c2cccnc2n2c3c(=O)n(C)c(=O)n(C)c3nc12 result="> 100 µM"

// next entry
The recorded TGI for entry CN(C)c1nc(=Nc2ccc(N=c3nc(N(C)C)ss3)cc2)ss1 equals > 100 µM
